Target: Ras-related protein Rab-7a (Canis lupus familiaris, UniProt P18067)
Sequence (P18067 whole entry): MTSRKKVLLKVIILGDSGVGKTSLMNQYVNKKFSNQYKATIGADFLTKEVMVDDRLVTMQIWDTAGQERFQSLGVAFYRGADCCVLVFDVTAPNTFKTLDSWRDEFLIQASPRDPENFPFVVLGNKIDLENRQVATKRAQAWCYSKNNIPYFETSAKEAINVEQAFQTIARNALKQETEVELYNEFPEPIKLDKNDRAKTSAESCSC
Test: Rab7 GTP binding inhibitors, analog potency, SAR follow-up, biochemical, oxadiazole analogs, multiplex bead flow cytometry (AID 2031)
Details: inactive by the depositor's call
metric: EC50 (µM)

> print(dat)
                                   compound  metric  test.result
1  Cc1ccc(C)c(N2CCN(C(=O)CCc3nc(-c4ccc(N(C)C)cc4)no3)CC2)c1 [KUC103409N]    EC50           30
2  Cc1ccc(C)c(N2CCN(C(=O)CCc3nc(-c4ccccc4F)no3)CC2)c1 [KUC103401N]    EC50           30
3  Cc1ccc(C)c(N2CCN(C(=O)CCc3nc(-c4cccc(Cl)c4)no3)CC2)c1    EC50           30
4  Cc1ccc(C)c(N2CCN(C(=O)CCc3nc(-c4cccc(F)c4)no3)CC2)c1 [KUC103366N]    EC50         7.85
5  COc1ccc(-c2noc(CCC(=O)N3CCN(c4ccccc4)CC3)n2)cc1    EC50           30
6  COc1ccc(-c2ccc(CCC(=O)N3CCN(c4cc(C)ccc4C)CC3)[nH]2)cc1    EC50           30
7  COc1ccc(-c2cc(CCC(=O)N3CCN(c4cc(C)ccc4C)CC3)[nH]n2)cc1    EC50           30
8  COc1ccc(-c2noc(CCC(=O)N3CCN(c4ccc(Br)cc4)CC3)n2)cc1    EC50           30

(a) COc1ccc(-c2noc(CCC(=O)N3CCN(c4ccc(F)cc4)CC3)n2)cc1 [KUC103398N]
(b) COc1ccc(-c2noc(CCC(=O)N3CCN(c4cccc(C)c4C)CC3)n2)cc1
Given the two records a and b , choose the one whose EC50 value is lower. // return label of chosen record b

(1) COc1ccc(-c2coc(CCC(=O)N3CCN(c4cc(C)ccc4C)CC3)n2)cc1
(2) COc1ccc(-c2cc(CCC(=O)N3CCN(c4cc(C)ccc4C)CC3)on2)cc1
Given the two records 1 and 2 , choose the one whose EC50 value is lower. // return label of chosen record 2
(2: 0.305 µM, 1: 30 µM)

(I) COc1ccc(-c2noc(CCC(=O)N3CCN(c4cccc(F)c4)CC3)n2)cc1
(II) Cc1ccc(C)c(N2CCN(C(=O)CCc3nc(-c4cccc(Br)c4)no3)CC2)c1 [KUC103367N]
Which shows the larger EC50 value: I or II ? // return label of chosen record I
(I: 30 µM, II: 3.51 µM)

(a) COc1ccccc1-c1noc(CCC(=O)N2CCN(c3cc(C)ccc3C)CC2)n1
(b) COc1cccc(-c2noc(CCC(=O)N3CCN(c4cc(C)ccc4C)CC3)n2)c1
Given the two records a and b , choose the one whose EC50 value is lower. // return label of chosen record b
(b: 3.43 µM, a: 30 µM)

====

Target: Ras-related protein Rab-7a (Canis lupus familiaris, UniProt P18067)
Test: Rab7 GTP binding inhibitors, analog potency, SAR follow-up, biochemical, oxadiazole analogs, multiplex bead flow cytometry (AID 2031)
Conditions: inactive by the depositor's call
pEC50: −log10 of the molar value.
metric: pEC50

Sample records with pEC50:
> print(dat)
                                   compound                              assay.target  metric  test.result
1  Cc1ccc(C)c(N2CCN(C(=O)CCc3nc(-c4cccc(C(F)(F)F)c4)no3)CC2)c1 [KUC103380N]  Ras-related protein Rab-7a (Canis lupus familiaris, UniProt P18067)   pEC50         6.15
2  Cc1cccc(-c2noc(CCC(=O)N3CCN(c4cc(C)ccc4C)CC3)n2)c1  Ras-related protein Rab-7a (Canis lupus familiaris, UniProt P18067)   pEC50         5.99
3  COc1ccc(-c2noc(CCC(=O)N3CCN(c4ccccc4Br)CC3)n2)cc1 [KUC103370N]  Ras-related protein Rab-7a (Canis lupus familiaris, UniProt P18067)   pEC50         5.65
4  COc1ccc(-c2noc(CCC(=O)N3CCN(c4ccc(OC)cc4)CC3)n2)cc1  Ras-related protein Rab-7a (Canis lupus familiaris, UniProt P18067)   pEC50         4.52
5  Cc1ccc(C)c(N2CCN(C(=O)CCc3nc(-c4ccccc4)no3)CC2)c1  Ras-related protein Rab-7a (Canis lupus familiaris, UniProt P18067)   pEC50         5.93

(P) COc1ccc(-c2cccc(CCC(=O)N3CCN(c4cc(C)ccc4C)CC3)c2)cc1
(Q) COc1ccc(-c2noc(CCC(=O)N3CCN(c4ccccc4F)CC3)n2)cc1
Which shows the larger pEC50 value: P or Q ? // return label of chosen record Q
(Q: 6.20, P: 4.52)
